# Tested on: HCC1569;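 note: TDF denotes transformed human dermal fibroblasts of mesenchymal origin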
# Test Name: cell number relative to DMSO (% of DMSO); higher = more cells (less growth inhibition / toxicity)
# Condition Info: concentration: 10 µM; 24 h
Readout Kind: cell number

Sample records with cell number:
>>> assay_value("CCC1(O)CC2CN(CCc3c([nH]c4ccccc34)C(C(=O)OC)(c3cc4c(cc3OC)N(C)C3C(O)(C(=O)OC)C(OC(C)=O)C5(CC)C=CCN6CCC43C65)C2)C1.O=S(=O)(O)O (centres undefined) [Vinblastine sulfate salt]")
48.9
>>> assay_value("CC(C)(C)c1nc2c3cc[nH]c(=O)c3c3cc(F)ccc3c2[nH]1")
110
>>> assay_value("COc1c2ccoc2cc2oc(C)cc(=O)c12")
103

// below: cell number requested for another compound
GET /value?item= O=c1c(-c2ccc(O)cc2)coc2cc(OC3OC(CO)C(O)C(O)C3O)ccc12 (centres undefined) &field=cell number returns 95.7
